- Tested on: mTORC1
- assay-remarks: S6K phosphorylation (mTORC1 activation) by immunoblotting in 293T cells
- Type: cell-based
- measurement-conditions: Homo sapiens, HEK-293T, 5 min; 293T cells, leucine 5 min, quantitation of p-S6K band (FIG. 11b legend); read-out: EC50 of leucine stimulation of mTORC1
- Protocol: FIGS. 9a-9d show the effect of LRS knockdown on leucine- or leucine analogues-stimulated S6K phosphorylation. In FIG. 9a, the effect of leucine analogues on leucine-stimulated S6K phosphorylation is shown. […] After 5 min incubation, cells were harvested and S6K phosphorylation was determined by immunoblotting. In FIG. 11a, 293T cells were treated with leucine at the indicated concentration for 5 min. Leucine-dependent S6K phosphorylation was determined by immunoblotting. […]
pEC50: −log10 of the molar value.
experimental-endpoint: pEC50

                                   compound  target_of_assay  experimental_endpoint  reported_measurement
0  CC(C)C[C@H](N)C(=O)O [Leucine, L-Leucine]           mTORC1                  pEC50                 ~4.10
